assayed-target: HIV-1 envelope glycoprotein gp120 of virus 7141 (HIV-1)
method-summary: cell-based or functional assay
Strictly below 20 µg/mL in neutralization IC50: y. Otherwise: n.

binder	classification
3.1.12-1 (antibody, human IgG1, kappa, V domains shown) VH: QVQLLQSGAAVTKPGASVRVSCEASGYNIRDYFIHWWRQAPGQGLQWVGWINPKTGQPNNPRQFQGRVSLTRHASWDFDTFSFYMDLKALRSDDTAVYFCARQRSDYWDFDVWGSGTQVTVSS VL: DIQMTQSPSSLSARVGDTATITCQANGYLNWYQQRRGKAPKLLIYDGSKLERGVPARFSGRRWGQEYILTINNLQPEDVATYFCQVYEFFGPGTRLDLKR	n

Query: Consider 2.2.17-1 (antibody, human IgG1, kappa, V domains shown) VH: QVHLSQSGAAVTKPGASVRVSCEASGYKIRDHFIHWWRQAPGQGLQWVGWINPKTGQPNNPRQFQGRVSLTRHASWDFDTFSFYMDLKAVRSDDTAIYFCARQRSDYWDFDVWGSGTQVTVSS VL: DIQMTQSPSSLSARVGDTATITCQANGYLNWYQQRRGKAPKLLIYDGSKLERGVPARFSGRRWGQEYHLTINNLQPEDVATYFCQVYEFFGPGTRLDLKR . Does its neutralization IC50 lie strictly below 20 µg/mL?
Response: y

Query: Lab note: neutralization IC50 threshold 20 µg/mL. Does this binder come in strictly under it? 2.2.9-1 (antibody, human IgG1, kappa, V domains shown) VH: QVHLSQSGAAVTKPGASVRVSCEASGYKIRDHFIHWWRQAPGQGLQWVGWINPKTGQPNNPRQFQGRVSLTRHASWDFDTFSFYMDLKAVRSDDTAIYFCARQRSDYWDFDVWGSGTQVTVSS VL: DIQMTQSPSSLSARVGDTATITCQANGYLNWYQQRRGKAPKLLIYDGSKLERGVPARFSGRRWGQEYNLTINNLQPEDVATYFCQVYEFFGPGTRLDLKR
Response: y

Query: API: query returns whether the binder falls strictly under 20 µg/mL in neutralization IC50. Query: 1.1.117-1 (antibody, human IgG1, kappa, V domains shown) VH: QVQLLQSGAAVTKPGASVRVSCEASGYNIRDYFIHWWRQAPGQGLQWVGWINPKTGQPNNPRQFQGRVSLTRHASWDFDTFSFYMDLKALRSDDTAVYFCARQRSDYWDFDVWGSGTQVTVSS VL: DIQMTQSPSSLSASVGDTATITCQANGYLNWYQQRRGKAPKLLIYDGSKLERGVPSRFSGRRWGQEYILTINNLQPEDIATYFCQVYEFFGPGTRLDLKR
Response: y
